# Test system: SNB-78
# EXPERIMENT SUMMARY: NCI tumour cell line growth inhibition, 48 h
Active and inactive are the calls of the source. No stated cut-off is given here; in the data, active = GI50 up to about 1.1 µM and inactive = higher.
OBSERVED PROPERTY: GI50

- COc1ccc(-n2/c(=N/C(=S)N(C)C)ss/c2=N\C(=S)N(C)C)cc1: 39.4 µM (inactive)
- O=C(Nc1ccccc1)C(=O)C(C(=O)c1ccccc1F)C1OC(=O)c2ccccc21 (configuration not stated): > 100 µM (inactive)
- N#CCCN(c1ccc(/C=C2\N=C(Cc3ccccc3)OC2=O)cc1)S(=O)(=O)c1ccccc1: > 100 µM (inactive)
- CS(=O)(=O)C1S(=O)(=O)OCCOS1(=O)=O: > 100 µM (inactive)
- O=P(Nc1cccc(Cl)c1)(Oc1ccccc1)N(CCCl)CCCl (configuration not stated): 18.3 µM (inactive)
- C#CCn1c(=O)[nH]c(=O)c2cccnc21: > 100 µM (inactive)
- O=C1CCCC(O)=C1SC1=C(O)CCCC1=O: > 100 µM (inactive)
- O=C(/C=C/c1ccccc1O)C(c1ccccc1)c1ccccc1: > 100 µM (inactive)
- CN1CCN(c2ccc3[nH]c(-c4ccc5[nH]c(-c6ccc(O)cc6)nc5c4)nc3c2)CC1: 265 µM (inactive)
- COc1cc(C2C3=C(CCC3=O)Oc3cc4c(cc32)OCO4)cc(OC)c1OC (configuration not stated): 0.706 µM (active)
- C[N+]1(C)C/C(=C/c2ccc(F)cc2)C(=O)/C(=C\c2ccc(F)cc2)C1: > 100 µM (inactive)
- CCOc1ccccc1NC(=O)CCC(=O)NN: > 100 µM (inactive)
- Cc1cn(C2CC(O)C(COC(=O)c3ccccc3)O2)c(=O)[nH]c1=O (configuration not stated): > 100 µM (inactive)
- CCCCNC(=S)OCCC(C)CCCC(C)C (configuration not stated): > 100 µM (inactive)
- CNC(=O)OCc1nc(SC)n(C)c1COC(=O)NC: 68.4 µM (inactive)
- CCOC(=O)C(/C(=N\NC(=O)OC)C(=O)Nc1cc(OC)ccc1OC)c1cnc2ccccc2n1 (configuration not stated): > 100 µM (inactive)
- CC1CCC2c3c([nH]c4ccccc34)C3C(=O)N(c4ccccc4)C(=O)C3C2C1 (configuration not stated): 10.6 µM (inactive)
